Exercise: for every item that follows, state its recorded pIC50.
- Target or test system: human DGKζ (Homo sapiens (Human))
- Sequence (Q13574 other isoform, or with tags, fused parts or gaps): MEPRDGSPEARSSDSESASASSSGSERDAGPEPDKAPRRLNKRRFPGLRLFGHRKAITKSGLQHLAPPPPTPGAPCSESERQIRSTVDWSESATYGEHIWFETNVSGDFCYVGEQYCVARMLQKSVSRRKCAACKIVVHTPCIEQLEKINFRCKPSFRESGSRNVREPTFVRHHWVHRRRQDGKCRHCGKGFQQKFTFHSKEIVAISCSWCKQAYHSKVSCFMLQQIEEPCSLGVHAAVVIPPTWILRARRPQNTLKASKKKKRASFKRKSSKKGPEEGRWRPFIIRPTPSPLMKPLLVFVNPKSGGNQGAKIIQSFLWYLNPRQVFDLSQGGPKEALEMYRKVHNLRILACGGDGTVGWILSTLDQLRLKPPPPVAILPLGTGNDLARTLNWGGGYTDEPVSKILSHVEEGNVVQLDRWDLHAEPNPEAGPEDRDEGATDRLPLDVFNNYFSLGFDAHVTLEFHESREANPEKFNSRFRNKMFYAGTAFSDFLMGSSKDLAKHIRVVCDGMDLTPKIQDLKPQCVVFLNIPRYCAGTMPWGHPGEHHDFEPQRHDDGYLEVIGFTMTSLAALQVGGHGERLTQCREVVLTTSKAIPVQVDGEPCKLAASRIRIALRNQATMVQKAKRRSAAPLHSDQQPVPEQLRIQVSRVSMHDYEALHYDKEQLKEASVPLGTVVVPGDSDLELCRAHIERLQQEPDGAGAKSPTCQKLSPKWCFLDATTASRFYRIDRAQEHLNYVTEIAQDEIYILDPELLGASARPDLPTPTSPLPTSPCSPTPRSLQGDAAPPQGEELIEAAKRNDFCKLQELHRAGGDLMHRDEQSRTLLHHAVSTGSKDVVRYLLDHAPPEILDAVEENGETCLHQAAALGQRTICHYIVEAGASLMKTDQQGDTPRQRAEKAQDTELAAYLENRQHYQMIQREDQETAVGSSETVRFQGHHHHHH
- Method description: DGKζ assay (detergent/lipid micelle substrate)
- Assay type: biochemical
- Condition: detergent/lipid micelle substrate; read-out: DGKζ IC50
pIC50: −log10 of the molar value.

COc1cccc(O)c1CN1CCN(c2c(C#N)c(=O)n(C)c3ccc(Cl)nc23)CC1 | < 3.62
CC(c1ccc(F)cc1)N1CCN(c2c(C#N)c(=O)n(C)c3ccc(Cl)nc23)CC1 (single isomer, unassigned) [Example 387] | < 3.62

Here's the next entry for you.
Req: Recorded pIC50 for `Cn1c(=O)c(C#N)c(N2CCN(Cc3ccc(O)c(C(F)(F)F)c3)CC2)c2nc(Cl)ccc21` , please?
Resp: < 3.62
